- system under test: Pancreatic elastase (Sus scrofa) (UniProt P08419+P00772)
- procedure details: Inhibition of porcine pancreatic elastase at 25 uM assessed as Kinact/Ki ratio incubated for 15 mins by spectrofluorometry
- Type: protein assay

{"columns": ["compound", "Ratio"],
 "data": [
  ["COc1ccc(C(=O)N[C@H](C(=O)N2CCC[C@H]2C(=O)N[C@@H](C(C)C)P(=O)(Oc2ccc(SC)cc2)Oc2ccc(SC)cc2)C(C)C)cc1", "6700 M⁻¹ s⁻¹"],
  ["CC(C)c1ccc(OP(=O)(Oc2ccc(C(C)C)cc2)C(C)NC(=O)[C@@H]2CCCN2C(=O)[C@@H](NC(=O)OC(C)(C)C)C(C)C)cc1 (mixture of isomers)", "300 M⁻¹ s⁻¹"],
  ["CC(C)C(NC(=O)[C@@H]1CCCN1C(=O)[C@@H](NC(=O)OC(C)(C)C)C(C)C)P(=O)(Oc1ccc(C(C)(C)C)cc1)Oc1ccc(C(C)(C)C)cc1 (mixture of isomers)", "700 M⁻¹ s⁻¹"],
  ["CSc1ccc(OP(=O)(Oc2ccc(SC)cc2)C(NC(=O)[C@@H]2CCCN2C(=O)[C@@H](NC(=O)COc2ccc(OCC(=O)O)cc2)C(C)C)C(C)C)cc1 (mixture of isomers)", "19100 M⁻¹ s⁻¹"],
  ["CCc1ccc(OP(=O)(Oc2ccc(CC)cc2)C(CC)NC(=O)[C@@H]2CCCN2C(=O)[C@@H](NC(=O)OC(C)(C)C)C(C)C)cc1 (mixture of isomers)", "4210 M⁻¹ s⁻¹"],
  ["CSc1ccc(OP(=O)(Oc2ccc(SC)cc2)[C@H](NC(=O)[C@@H]2CCCN2C(=O)[C@@H](NC(=O)OC(C)(C)C)C(C)C)C(C)C)cc1", "< 50 M⁻¹ s⁻¹"]
]}

Source of measurements: ChEMBL document CHEMBL2163241
